- settings: in sec-butanol, 323.15 K
measuredQuantity: solubility (mole fraction)
Keep it simple and answer with nothing but the number.

Inquiry: Given the entry C=CC1=C(C(=O)O)N2C(=O)[C@@H](NC(=O)/C(=N\OCC(=O)O)c3csc(N)n3)[C@H]2SC1.O.O.O , report its measured solubility (mole fraction).
Reply text: 0.00316

---

- settings: in n-butanol, 278.15 K
measuredQuantity: solubility (mole fraction)
Keep it simple and answer with nothing but the number.

Inquiry: Given the entry C=CC1=C(C(=O)O)N2C(=O)[C@@H](NC(=O)/C(=N\OCC(=O)O)c3csc(N)n3)[C@H]2SC1.O.O.O , report its measured solubility (mole fraction).
Reply text: 0.000983

---

- settings: in n-butanol, 318.15 K
measuredQuantity: solubility (mole fraction)
Keep it simple and answer with nothing but the number.

Inquiry: Given the entry C=CC1=C(C(=O)O)N2C(=O)[C@@H](NC(=O)/C(=N\OCC(=O)O)c3csc(N)n3)[C@H]2SC1.O.O.O , report its measured solubility (mole fraction).
Reply text: 0.00343

---

- settings: in ethyl acetate, 308.15 K
measuredQuantity: solubility (mole fraction)
Keep it simple and answer with nothing but the number.

Inquiry: Given the entry C=CC1=C(C(=O)O)N2C(=O)[C@@H](NC(=O)/C(=N\OCC(=O)O)c3csc(N)n3)[C@H]2SC1.O.O.O , report its measured solubility (mole fraction).
Reply text: 0.00185

---

- settings: in acetone, 298.15 K
measuredQuantity: solubility (mole fraction)
Keep it simple and answer with nothing but the number.

Inquiry: Given the entry C=CC1=C(C(=O)O)N2C(=O)[C@@H](NC(=O)/C(=N\OCC(=O)O)c3csc(N)n3)[C@H]2SC1.O.O.O , report its measured solubility (mole fraction).
Reply text: 0.004

---

- settings: in ethanol, 303.15 K
measuredQuantity: solubility (mole fraction)
Keep it simple and answer with nothing but the number.

Inquiry: Given the entry C=CC1=C(C(=O)O)N2C(=O)[C@@H](NC(=O)/C(=N\OCC(=O)O)c3csc(N)n3)[C@H]2SC1.O.O.O , report its measured solubility (mole fraction).
Reply text: 0.0037

---

- settings: in isopropanol, 308.15 K
measuredQuantity: solubility (mole fraction)
Keep it simple and answer with nothing but the number.

Inquiry: Given the entry C=CC1=C(C(=O)O)N2C(=O)[C@@H](NC(=O)/C(=N\OCC(=O)O)c3csc(N)n3)[C@H]2SC1.O.O.O , report its measured solubility (mole fraction).
Reply text: 0.0023

---

- settings: in isopropanol, 318.15 K
measuredQuantity: solubility (mole fraction)

Inquiry: Given the entry C=CC1=C(C(=O)O)N2C(=O)[C@@H](NC(=O)/C(=N\OCC(=O)O)c3csc(N)n3)[C@H]2SC1.O.O.O , report its measured solubility (mole fraction).
Reply text: 0.00291

---

- settings: in sec-butanol, 283.15 K
measuredQuantity: solubility (mole fraction)
Keep it simple and answer with nothing but the number.

Inquiry: Given the entry C=CC1=C(C(=O)O)N2C(=O)[C@@H](NC(=O)/C(=N\OCC(=O)O)c3csc(N)n3)[C@H]2SC1.O.O.O , report its measured solubility (mole fraction).
Reply text: 0.000995

---

- settings: in sec-butanol, 293.15 K
measuredQuantity: solubility (mole fraction)

Inquiry: Given the entry C=CC1=C(C(=O)O)N2C(=O)[C@@H](NC(=O)/C(=N\OCC(=O)O)c3csc(N)n3)[C@H]2SC1.O.O.O , report its measured solubility (mole fraction).
Reply text: 0.00143
